Assay: Volume of distribution at steady state in rat at 2 mg/kg, iv and 30 mg/kg, po
Format: ADME, organism-based
Settings: in vivo, read-out: Vdss
readout: Vd (L/kg)
One number for each entry, in L/kg.

Asked: For the molecule shown here, Cc1ccc(F)cc1C(C)(C)C[C@@](O)(Cc1cc2nnccc2[nH]1)C(F)(F)F , give the reported Vd.
Given back: 3.7

---

Kindly state pIC50 for each of the entries shown.
Target: Glucocorticoid receptor (Homo sapiens, UniProt P04150)
Sequence (P04150 whole entry): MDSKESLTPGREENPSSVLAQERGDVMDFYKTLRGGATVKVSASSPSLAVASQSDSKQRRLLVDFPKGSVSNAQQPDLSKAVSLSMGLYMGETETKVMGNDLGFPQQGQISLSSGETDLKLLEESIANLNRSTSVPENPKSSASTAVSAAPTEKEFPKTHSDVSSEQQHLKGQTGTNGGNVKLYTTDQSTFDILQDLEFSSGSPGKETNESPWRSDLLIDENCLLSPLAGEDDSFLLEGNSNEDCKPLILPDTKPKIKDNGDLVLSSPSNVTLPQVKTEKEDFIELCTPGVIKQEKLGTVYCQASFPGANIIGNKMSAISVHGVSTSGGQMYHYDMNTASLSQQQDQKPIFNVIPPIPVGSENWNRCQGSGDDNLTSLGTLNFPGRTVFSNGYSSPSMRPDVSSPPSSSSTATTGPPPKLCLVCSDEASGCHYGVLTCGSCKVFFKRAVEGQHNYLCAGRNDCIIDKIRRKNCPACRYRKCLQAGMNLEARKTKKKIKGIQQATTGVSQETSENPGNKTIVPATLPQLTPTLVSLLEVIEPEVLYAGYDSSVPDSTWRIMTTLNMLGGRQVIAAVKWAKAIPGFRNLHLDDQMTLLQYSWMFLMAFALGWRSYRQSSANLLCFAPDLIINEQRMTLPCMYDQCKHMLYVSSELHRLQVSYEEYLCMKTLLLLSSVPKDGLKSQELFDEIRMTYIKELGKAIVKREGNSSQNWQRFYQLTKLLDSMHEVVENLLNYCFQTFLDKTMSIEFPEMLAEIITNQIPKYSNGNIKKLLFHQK
Test: Competitive binding affinity to glucocorticoid receptor (unknown origin) expressed in baculovirus-infected cell system after 1 hr by fluorescence polarization assay in presence of tetramethylrhodamine-labeled dexamethasone
One number for each entry, as −log10 of the molar value.

Example entries begin here.
{"columns": ["molecule", "pIC50"],
 "data": [
  ["CC(C)(CC(O)(Cc1cc2ncncc2[nH]1)C(F)(F)F)c1cc(F)cc2c1OCC2 (racemic)", 8.15],
  ["Cc1ccc(F)cc1C(C)(C)C[C@@](O)(Cc1cc2nnccc2[nH]1)C(F)(F)F", 8.30],
  ["Cc1ccc(F)cc1C(C)(C)CC(O)(Cc1cc2nc(-c3ccccc3)ncc2[nH]1)C(F)(F)F (racemic)", 8.30],
  ["Cc1ccc(F)cc1C(C)(C)CC(O)(Cc1cc2nc(N3CCS(=O)(=O)CC3)ncc2[nH]1)C(F)(F)F (racemic)", 8.10],
  ["Cc1ccc(F)cc1C(C)(C)CC(O)(Cc1cc2nnccc2[nH]1)C(F)(F)F (racemic)", 8.15],
  ["COc1ccc(F)cc1C(C)(C)CC(O)(Cc1cc2cncnc2[nH]1)C(F)(F)F (racemic)", 8.40],
  ["Cc1ccc(F)cc1C(C)(C)CC(O)(Cc1cc2nccnc2[nH]1)C(F)(F)F (racemic)", 7.24],
  ["Cc1ccc(F)cc1C(C)(C)CC(O)(Cc1cc2ncncc2[nH]1)C(F)(F)F (racemic)", 8.10],
  ["Cc1ccc(F)cc1C(C)(C)CC(O)(Cc1cc2nc(N3CCOCC3)ncc2[nH]1)C(F)(F)F (racemic)", 8.30],
  ["CC(C)(CC(O)(Cc1cc2ncncc2[nH]1)C(F)(F)F)c1cc(Cl)cc2c1OCC2 (racemic)", 8.30]
]}

// for each molecule below, give its pIC50
1. Cc1ccc(F)cc1C(C)(C)CC(O)(Cc1cc2nc(-c3ccccc3)cnc2[nH]1)C(F)(F)F (stereo not drawn)
2. CC(C)(CC(O)(Cc1cc2ncncc2[nH]1)C(F)(F)F)c1ccc(F)cc1O (racemic)

Given back:
[7.96, 8.30]
